target: GPNMB-V5His (recombinant human GPNMB extracellular domain with C-terminal V5-His tag) (human) (UniProt Q14956); assay: SPR (Biacore), mAb on protein A, GPNMB 880 nM
measurement type: kon
Entry format: amount then unit.

Look at this binder and give its reported kon. GPNMB antibody (1.10.1) (antibody, V domains shown) VH: QVQLQESGPGLVKPSETLSLTCTVSGDSISNYYWSWIRQPPGKGLEWIGYFYYSGSTNYNPSLKSRVTISVDTSKNQFSLKLSSVTAADTAVYYCARDRGWADYWGQGTLVTVSS VL: EIVLTQSPGTLSLSPGERATLSCRTSQSISSSYLAWYQQKPGQVPRLLIYGASSRATGIPDRFSGSGSGTDFTLTISRLEPEDFAVYYCQQYGSSITFGQGTRLEIKR
4240 M⁻¹ s⁻¹

Could you tell me which kon is on file for Mab1.7.1 (antibody, human IgG2, V domains shown) VH: QVQLQESGPGLVKPSQTLSLTCTVSGGSISSANYYWTWIRQHPGKGLEWIGYIYYSGSTYCNPSLKSRVIISVDTSKNQFSLKLSSVTAADTAVYYCARGYNWNYFDYWGQGTLVTVSS VL: DIVMTQSPATLSVSPGERATLSCRASQSVSSNLAWYQERPGQAPRLLIYGASTRATGIPARFSGSGSGTEFTLTISSLQSEDFAVYYCQQYNKWPPWTFGQGTKVEIER ?
11800 M⁻¹ s⁻¹

Which kon is reported for this binder? 1.7.3 (antibody, V domains shown) VH: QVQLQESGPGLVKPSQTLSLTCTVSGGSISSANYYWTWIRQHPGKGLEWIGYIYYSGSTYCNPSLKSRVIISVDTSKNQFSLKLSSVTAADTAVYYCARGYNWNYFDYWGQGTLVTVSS VL: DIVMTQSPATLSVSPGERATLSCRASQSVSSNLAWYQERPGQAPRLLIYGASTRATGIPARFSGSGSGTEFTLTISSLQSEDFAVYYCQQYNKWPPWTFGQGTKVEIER
9650 M⁻¹ s⁻¹

# query: kon of entry Mab1.10.2 (antibody, human IgG2, V domains shown) VH: QVQLQESGPGLVKPSETLSLTCTVSGDSISNYYWSWIRQPPGKGLEWIGYFYYSGSTNYNPSLKSRVTISVDTSKNQFSLKLSSVTAADTAVYYCARDRGWADYWGQGTLVTVSS VL: EIVLTQSPGTLSLSPGERATLSCRTSQSISSSYLAWYQQKPGQVPRLLIYGASSRATGIPDRFSGSGSGTDFTLTISRLEPEDFAVYYCQQYGSSITFGQGTRLEIKR
3960 M⁻¹ s⁻¹
